Reference source for all entries: patent US9115093B2

Target: neutrophil elastase (Homo sapiens, UniProt P08246)
Sequence (P08246 30-247 limits assumed): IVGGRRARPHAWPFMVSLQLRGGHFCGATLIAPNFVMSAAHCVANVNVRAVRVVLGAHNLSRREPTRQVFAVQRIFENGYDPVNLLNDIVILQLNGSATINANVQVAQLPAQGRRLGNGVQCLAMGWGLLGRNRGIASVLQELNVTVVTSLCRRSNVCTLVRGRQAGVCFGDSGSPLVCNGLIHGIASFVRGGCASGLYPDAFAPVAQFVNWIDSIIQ
Test: Human Neutrophil Elastase Assay
Conditions: substrate MeOSuc-Ala-Ala-Pro-Val-AMC, pH 7.5, room temperature
Each entry below carries its reported IC50.

>  <compound>
Cn1cc(CN2C(=O)N(c3cccc(C(F)(F)F)c3)C3=C(C(=O)CCC3)C2c2ccc(C#N)cc2)cn1 (stereo not shown)

>  <IC50>
9.8 nM

$$$$
>  <compound>
N#Cc1ccc(C2C3=C(CCCC3=O)N(c3cccc(C(F)(F)F)c3)C(=O)N2CC(=O)N[C@H]2CCNC2=O)cc1 (stereo partly shown)

>  <IC50>
11.4 nM

$$$$
>  <compound>
CC1(O)CCN(C(=O)CN2C(=O)N(c3cccc(C(F)(F)F)c3)C3=C(C(=O)CCC3)C2c2ccc(C#N)cc2)C1 (stereo not shown)

>  <IC50>
1.7 nM

$$$$
>  <compound>
Cc1cc(C#N)ccc1C1C2=C(CCCC2=O)N(c2cccc(C(F)(F)F)c2)C(=O)N1S(C)(=O)=O (stereo not shown)

>  <IC50>
2 nM

$$$$

---

Listing: pIC50 of selected molecules
Target: neutrophil elastase (Homo sapiens, UniProt P08246)
Sequence (P08246 30-247 limits assumed): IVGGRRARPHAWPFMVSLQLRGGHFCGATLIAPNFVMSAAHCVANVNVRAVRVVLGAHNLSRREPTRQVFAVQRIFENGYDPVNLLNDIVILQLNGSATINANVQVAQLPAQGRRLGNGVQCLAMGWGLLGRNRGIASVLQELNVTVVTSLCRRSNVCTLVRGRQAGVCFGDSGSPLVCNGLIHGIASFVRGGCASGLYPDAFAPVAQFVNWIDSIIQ
Experiment: Human Neutrophil Elastase Assay
Type: biochemical
Set-up: purchased Calbiochem 324681
Details: substrate MeOSuc-Ala-Ala-Pro-Val-AMC, pH 7.5, room temperature
pIC50: −log10 of the molar value.

>  <molecule>
CN(C(=O)CN1C(=O)N(c2cccc(C(F)(F)F)c2)C2=C(C(=O)CCC2)C1c1ccc(C#N)cc1)C1CCS(=O)(=O)C1 (stereo not shown) [Example 36.69]

>  <comparative sign>
=

>  <pIC50>
8.51

$$$$
>  <molecule>
N#Cc1ccc(C2C3=C(CCCC3=O)N(c3cccc(C(F)(F)F)c3)C(=O)N2C(=O)NCC2CCC(=O)N2)cc1 (stereo not shown) [Example 39.17]

>  <comparative sign>
>

>  <pIC50>
9.00

$$$$
>  <molecule>
CCOC(=O)C(F)N1C(=O)N(c2cccc(C(F)(F)F)c2)C2=C(C(=O)CCC2)C1c1ccc(C#N)cc1 (stereo not shown) [Example 60]

>  <comparative sign>
=

>  <pIC50>
7.67

$$$$
>  <molecule>
Cn1ccc(CNC(=O)CN2C(=O)N(c3cccc(C(F)(F)F)c3)C3=C(C(=O)CCC3)C2c2ccc(C#N)cc2)n1 (stereo not shown) [Example 36.33]

>  <comparative sign>
=

>  <pIC50>
7.77

$$$$
>  <molecule>
N#Cc1ccc(C2C3=C(CCCC3=O)N(c3cccc(C(F)(F)F)c3)C(=O)N2CC(=O)N2CCc3cnccc3C2)cc1 (stereo not shown) [Example 36.64]

>  <comparative sign>
=

>  <pIC50>
8.25

$$$$
>  <molecule>
CNC(=O)N1C(=O)N(c2cccc(C(F)F)c2)C2=C(C(=O)CCC2)C1c1ccc(C#N)cc1S(C)(=O)=O (stereo not shown) [Example 50]

>  <comparative sign>
>

>  <pIC50>
9.00

$$$$
>  <molecule>
C[S+]([O-])CCNC(=O)CN1C(=O)N(c2cccc(C(F)(F)F)c2)C2=C(C(=O)CCC2)C1c1ccc(C#N)cc1 (stereo not shown) [Example 36.29]

>  <comparative sign>
=

>  <pIC50>
8.02

$$$$
>  <molecule>
CS(=O)(=O)N1CCN(C(=O)CN2C(=O)N(c3cccc(C(F)(F)F)c3)C3=C(C(=O)CCC3)C2c2ccc(C#N)cc2)CC1 (stereo not shown) [Example 36.75]

>  <comparative sign>
=

>  <pIC50>
8.62

$$$$
>  <molecule>
CS(=O)(=O)C1CCN(C(=O)CN2C(=O)N(c3cccc(C(F)(F)F)c3)C3=C(C(=O)CCC3)C2c2ccc(C#N)cc2)C1 (stereo not shown) [Example 36.70]

>  <comparative sign>
=

>  <pIC50>
8.64

$$$$
>  <molecule>
N#Cc1ccc(C2C3=C(CCCC3=O)N(c3cccc(C(F)(F)F)c3)C(=O)N2S(=O)(=O)Cc2ccccc2)cc1 (stereo not shown) [Example 44.8]

>  <comparative sign>
=

>  <pIC50>
8.05

$$$$
>  <molecule>
CS(=O)(=O)c1cc(C#N)ccc1C1C2=C(CCCC2=O)N(c2cccc(C(F)(F)F)c2)C(=O)N1C(=O)NCCCO (stereo not shown) [Example 47.3]

>  <comparative sign>
>

>  <pIC50>
9.00

$$$$
>  <molecule>
CN(CC1(C)COC1)C(=O)CN1C(=O)N(c2cccc(C(F)(F)F)c2)C2=C(C(=O)CCC2)C1c1ccc(C#N)cc1 (stereo not shown) [Example 36.41]

>  <comparative sign>
=

>  <pIC50>
8.13

$$$$
>  <molecule>
Cn1ccc(CN2C(=O)N(c3cccc(C(F)(F)F)c3)C3=C(C(=O)CCC3)C2c2ccc(C#N)cc2)cc1=O (stereo not shown) [Example 27]

>  <comparative sign>
=

>  <pIC50>
7.97

$$$$
